Just for reference, paper PMC2655646 is where these values come from.

Target: Shp2 (Mus musculus, UniProt P35235)
Sequence (P35235 247-521 limits assumed): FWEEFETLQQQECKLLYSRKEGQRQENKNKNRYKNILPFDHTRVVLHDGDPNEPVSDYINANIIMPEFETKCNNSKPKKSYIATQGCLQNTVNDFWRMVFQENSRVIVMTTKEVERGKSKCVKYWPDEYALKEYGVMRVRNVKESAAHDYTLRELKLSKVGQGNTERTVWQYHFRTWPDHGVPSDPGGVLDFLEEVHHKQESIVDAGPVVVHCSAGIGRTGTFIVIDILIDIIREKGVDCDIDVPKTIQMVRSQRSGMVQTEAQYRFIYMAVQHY
MEASURED_ATTRIBUTE: IC50 (nM)
Quick reminder: number only, in nM, skip the unit.

Prompt: What reported IC50 corresponds to O=C(O)c1cc(O)c(=O)c2c(O)c(O)ccc2c1 [DCA, 7-deshydroxypyrogallin-4-carboxylic acid] on Shp2 (Mus musculus, UniProt P35235)?
Completion: 2100
